Recorded EC50 (FLIPR) values for a group of binders are listed next.
target_under_test: T1, human NMUR1 (human, UniProt Q9HB89 1-426)
T1 sequence (looked up): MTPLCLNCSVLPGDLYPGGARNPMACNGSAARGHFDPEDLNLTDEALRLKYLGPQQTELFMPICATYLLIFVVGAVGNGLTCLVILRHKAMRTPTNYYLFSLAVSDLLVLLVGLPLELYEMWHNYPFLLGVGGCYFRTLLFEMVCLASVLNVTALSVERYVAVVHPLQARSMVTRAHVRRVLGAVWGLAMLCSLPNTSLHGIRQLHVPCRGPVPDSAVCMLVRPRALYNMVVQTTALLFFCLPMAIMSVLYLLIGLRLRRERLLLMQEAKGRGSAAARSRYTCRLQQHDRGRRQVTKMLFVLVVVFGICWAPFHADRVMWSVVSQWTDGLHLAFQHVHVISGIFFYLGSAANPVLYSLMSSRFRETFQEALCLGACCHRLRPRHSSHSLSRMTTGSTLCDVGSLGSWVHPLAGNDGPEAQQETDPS
protocol_notes: cell-based or functional assay
Non-standard residues stand in square brackets, D forms with d. No end group written: not given here. *: point of attachment. (PEG)2 40 kDa = branched PEG of 40 kDa linked via the Cys side-chain thiol (code C2 = Cys(PEG)2 40 kDa); Cholesteroyl = cholesterol linked to a cysteine residue via the side-chain thiol; Succinimide(1-Et,3-yl) = CCN1C(=O)CC(*)C1=O; Palmitoyl = CCCCCCCCCCCCCCCC(=O)*
Reply with the number and its unit after it.

// worked examples, EC50 (FLIPR) included
Palmitoyl-C(Succinimide(1-Et,3-yl))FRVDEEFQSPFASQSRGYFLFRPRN-NH2 [NMU24]	1000 nM
Ac-FRVDEEFQSPFASQSRPYFLFRPRN-NH2 [NMU5]	6.1 nM
Ac-C((PEG)2 40 kDa)FRVDEEFQSPFASQSRGYF[dA]WRPRN-NH2 [NMU14]	104 nM
Ac-C(Cholesteroyl)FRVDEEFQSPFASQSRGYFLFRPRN-NH2 [NMU10]	1000 nM
Ac-C((PEG)2 40 kDa)FQSPFASQSRGYFLFRPRN-NH2 [NMU20]	16.4 nM

EC50 (FLIPR) in this record for Ac-C(Cholesteroyl)GYFLFRPRN-NH2 [NMU11] : 1000 nM

Value of measured EC50 (FLIPR) for the entry Ac-C(PEG 20 kDa)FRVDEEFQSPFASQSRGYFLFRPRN-NH2 [NMU21] : 14.5 nM

The reported value for Ac-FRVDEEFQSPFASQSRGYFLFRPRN-NH2 [NMU2] in terms of EC50 (FLIPR) is 5.5 nM

Looking up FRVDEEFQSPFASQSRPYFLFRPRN-NH2 [NMU4] , I see its EC50 (FLIPR) listed as 7.2 nM

In plain terms, Ac-C(Succinimide(1-Et,3-yl))ASQSRGYFLFRPRN-NH2 (SMILES CCN1C(=O)CC(SC[C@H](NC(C)=O)C(=O)N[C@@H](C)C(=O)N[C@@H](CO)C(=O)N[C@@H](CCC(N)=O)C(=O)N[C@@H](CO)C(=O)N[C@@H](CCCNC(=N)N)C(=O)NCC(=O)N[C@@H](Cc2ccc(O)cc2)C(=O)N[C@@H](Cc2ccccc2)C(=O)N[C@@H](CC(C)C)C(=O)N[C@@H](Cc2ccccc2)C(=O)N[C@@H](CCCNC(=N)N)C(=O)N2CCC[C@H]2C(=O)N[C@@H](CCCNC(=N)N)C(=O)N[C@@H](CC(N)=O)C(N)=O)C1=O) [NMU17] has a documented EC50 (FLIPR) of 5 nM
